Tested on: MOLT-4
Experiment: NCI tumour cell line growth inhibition, 48 h
The source made the active and inactive calls. Rule as the data show it: active = GI50 up to about 1.1 µM and inactive = higher.
// one of active, inactive, no free text

Please review the following examples before continuing.
Compound	Category
O=C(/C=C/c1ccc(OCc2ccccc2)c(OCc2ccccc2)c1)OCc1ccccc1	inactive
CN1C(=O)C(=O)c2cc3c(c4c2c1cc1ccccc14)OCO3	inactive
COC(=O)c1sc2c(=O)c(C(=O)OC)c(C(=O)OC)sc2c(=O)c1C(=O)OC	inactive
COc1cc([C@@H]2c3cc4c(cc3C(N)C3COC(=O)[C@@H]32)OCO4)cc(OC)c1O (stereo partly specified)	active
Cc1ccc2c(ccc3[nH]cc(CNc4ccc(NS(C)(=O)=O)cc4)c32)n1	inactive

Could you now look at the following compound, please?
### Prompt Call for entry CCOC(=O)[C@@]1(C(C)=O)CC(C)=C(C)C[S@@+]1[O-] :
### Response inactive

Attribution: ChEMBL document CHEMBL1201862
